// provenance: BindingDB's records for doi:10.1111/j.1747-0285.2007.00590.x

- assayed target: Hyaluronidase-1 (Homo sapiens, UniProt Q12794)
- Sequence (Q12794 whole entry): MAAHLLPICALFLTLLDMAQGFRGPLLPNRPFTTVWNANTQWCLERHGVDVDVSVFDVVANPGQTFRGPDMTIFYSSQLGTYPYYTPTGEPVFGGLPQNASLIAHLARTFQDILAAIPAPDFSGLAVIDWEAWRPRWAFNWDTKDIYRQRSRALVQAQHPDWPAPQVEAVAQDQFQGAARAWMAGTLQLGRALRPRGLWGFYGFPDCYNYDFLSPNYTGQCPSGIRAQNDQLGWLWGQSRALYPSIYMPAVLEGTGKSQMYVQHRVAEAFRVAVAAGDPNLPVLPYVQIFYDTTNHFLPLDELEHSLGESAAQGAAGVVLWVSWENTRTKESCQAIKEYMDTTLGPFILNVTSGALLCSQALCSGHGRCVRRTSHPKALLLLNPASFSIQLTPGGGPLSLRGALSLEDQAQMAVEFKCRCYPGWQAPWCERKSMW
- method: Morgan-Elson Assay
- assay context: pH 3.5; 37 °C
pIC50: −log10 of the molar value.
readout name: pIC50

mol smiles | readout name | assay result
O=C(NCc1ccccc1)c1cc2ccccc2n1Cc1ccccc1 | pIC50 | 4.11
O=C(NCc1ccc(Cl)cc1)c1cn(Cc2ccc(F)cc2)c2ccccc12 | pIC50 | 4.14
O=C(NCc1ccccc1)c1cn(Cc2ccc(F)cc2)c2ccccc12 | pIC50 | 4.21
O=C(NCc1ccc(Cl)cc1)c1cc2ccccc2n1Cc1ccccc1 | pIC50 | 4.19
O=C(NCc1ccc(F)cc1)c1cn(Cc2ccc(F)cc2)c2ccccc12 | pIC50 | 4.25

====

- assayed target: UniProtKB Q12794
- method: Stains-all Assay
- assay context: pH 7; 37 °C
pIC50: −log10 of the molar value.
readout name: pIC50

mol smiles | assay result
O=C(NCc1ccc(Cl)cc1)c1cc2ccccc2n1Cc1ccc(F)cc1 | 4.48
O=C(NCc1ccc(Cl)cc1)c1cn(Cc2ccc(F)cc2)c2ccccc12 | 4.47
O=C(NCc1ccc(F)cc1)c1cn(Cc2ccc(F)cc2)c2ccccc12 | 4.59
